Origin of measurements: paper PMC12365614

- Experimental System: T1, P. miniata Hop1 CBR WT (GST) (Patiria miniata, UniProt A0A913ZKG6 352-499)
- T1 sequence: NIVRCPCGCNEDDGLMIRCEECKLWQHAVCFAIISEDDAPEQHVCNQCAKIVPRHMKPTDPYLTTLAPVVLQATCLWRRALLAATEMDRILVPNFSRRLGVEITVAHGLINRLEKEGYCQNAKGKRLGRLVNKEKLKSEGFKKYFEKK
- Assay Method Text: fluorescence polarization; FP: 20 mM Tris-HCl pH 8, 100 mM Na glutamate, 5 mM MgCl2, 3% glycerol, 0.5 mM BME, 50 nM DNA, 4 C 30 min; EMSA: 20 mM Hepes pH 7, 100 mM NaCl, 100 uM ZnCl2, 10% glycerol, 2 mM BME, 4 C 60 min
- Condition Description: protein: recombinant; tags: N-terminal His6-GST (uncleaved); label: 5' 6-FAM on strand 1; blunt
pKd: −log10 of the molar value.

| Binder | pKd |
| --- | --- |
| 20-bp FAM duplex (dsDNA) DNA 1: CTTATATCTGAATAGTCAGT DNA 2: ACTGACTATTCAGATATAAG | 4.80 |
